TESTED SYSTEM: biotinylated labeled human GPC3 protein (produced in-house) (human, UniProt P51654 25-559, limits assumed, biotinylated (Dojindo, Cat. No. LK03); sites not stated)
MEASUREMENT DESCRIPTION: ELISA, biotinylated human GPC3 protein
QUANTITY MEASURED: OD450 at 0.02 nM (OD450)
Just the number please, in OD450, no unit attached.

Some binders with recorded OD450 at 0.02 nM:
BINDER | QUANTITY UNIT | OD450 at 0.02 nM
hAb005LH2L1b (antibody, human IgG1, V domains shown, Humanized F3.54.12; VH H2 + VL L1b; expressed as human IgG1) VH: EVQLVQSGAEVKKPGASVKVSCKASGYTFTDYEMHWVRQAPGQGLEWMGAIDPETGNTAYIQKFKGRVTLTTDKSTSTAYMELRSLRSDDTAVYYCTRFYSYSHWGQGTTVTVSS VL: DIVMTQTPLSLPVTPGEPASISCRSSQSLVHSNRNTYLHWYLQKPGQSPQLLIYKVSNRFSGVPDRFSGSGSGTDFTLKISRVEAEDVGVYYCSQNTHVPPTFGGGTKVEIK | OD450 | 0.43
hAb005LH1L1 (antibody, human IgG1, V domains shown, Humanized F3.54.12; VH H1 + VL L1; expressed as human IgG1) VH: EVQLVQSGAEVKKPGASVKVSCKASGYTFTDYEMHWVRQAPGQGLEWMGAIDPETGNTAYIQKFKGRVTMTTDKSTSTAYMELRSLRSDDTAVYYCTRFYSYSHWGQGTTVTVSS VL: DIVMTQTPLSLPVTPGEPASISCRSSQSLVHSNGNTYLHWYLQKPGQSPQLLIYKVSNRFSGVPDRFSGSGSGTDFTLKISRVEAEDVGVYYCSQNTHVPPTFGGGTKVEIK | OD450 | 0.442

Continue with the next binder.
// fetch OD450 at 0.02 nM given entry hAb001H2L1a (antibody, human IgG1, V domains shown, Humanized F2.169.2; VH H2 + VL L1a; expressed as human IgG1) VH: EVQLVESGGGLVQPGGSLRLSCAASGFSFNTNAMNWVRQAPGKGLEWVGRIRSKSNNYATYYADSVKDRFTISRDDSKSSLYLQMNSLKTEDTAVYYCVRDGYYVLFAYWGQGTLVTVSS VL: DIVMTQTPLSLPVTPGEPASISCRFSQSIVNSDGNTYLEWFLQKPGQSPQLLIYKVSNRFSGVPDRFSGSGSGTDFTLKISRVEAEDVGVYYCFQGSHVPFTFGQGTKLEIK
0.437
